STUDY_SYSTEM: HLA-A*26:01
ASSAY_TEXT: IEDB peptide-MHC binding, purified MHC/direct/fluorescence; filed as Kd, often an IC50 or EC50 that approximates it; bounds were set here for any values at or beyond the usual limits of such assays
EXPERIMENTAL_CONTEXT: source organism: Salmonella enterica subsp. enterica serovar Berta
pKd: −log10 of the molar value.

{"columns": ["CHAIN", "STUDY_SYSTEM", "pKd"],
 "data": [
  ["HQDDGQPRL", "HLA-A*26:01", "≤ 4.70"]
]}

###

STUDY_SYSTEM: HLA-B*27:20
ASSAY_TEXT: IEDB peptide-MHC binding, purified MHC/competitive/fluorescence; filed as Kd, often an IC50 or EC50 that approximates it; bounds were set here for any values at or beyond the usual limits of such assays
EXPERIMENTAL_CONTEXT: source organism: Escherichia coli HS
RESULT_TYPE: Kd (nM)

{"columns": ["CHAIN", "STUDY_SYSTEM", "RESULT_TYPE", "READOUT_UNITS", "DATA_VALUE"],
 "data": [
  ["MMWATAQAL", "HLA-B*27:20", "Kd", "nM", 6.4]
]}

###

STUDY_SYSTEM: HLA-B*53:01
ASSAY_TEXT: IEDB peptide-MHC binding, purified MHC/competitive/radioactivity; filed as Kd, often an IC50 or EC50 that approximates it; bounds were set here for any values at or beyond the usual limits of such assays
EXPERIMENTAL_CONTEXT: source organism: SARS coronavirus Tor2

{"columns": ["CHAIN", "Kd (µM)"],
 "data": [
  ["KPTTFMLKY", 0.0247],
  ["TPKYKFVRI", 16]
]}

###

STUDY_SYSTEM: HLA-A*02:17
ASSAY_TEXT: IEDB peptide-MHC binding, purified MHC/competitive/radioactivity; filed as Kd, often an IC50 or EC50 that approximates it; bounds were set here for any values at or beyond the usual limits of such assays
EXPERIMENTAL_CONTEXT: source organism: Homo sapiens
pKd: −log10 of the molar value.
RESULT_TYPE: pKd

{"columns": ["CHAIN", "STUDY_SYSTEM", "DATA_VALUE"],
 "data": [
  ["RKSAPSTGGV", "HLA-A*02:17", "≤ 4.69"]
]}

###

STUDY_SYSTEM: HLA-B*15:17
ASSAY_TEXT: IEDB peptide-MHC binding, purified MHC/competitive/fluorescence; filed as Kd, often an IC50 or EC50 that approximates it; bounds were set here for any values at or beyond the usual limits of such assays
EXPERIMENTAL_CONTEXT: source organism: Bacillus anthracis str. Ames
pKd: −log10 of the molar value.
RESULT_TYPE: pKd

{"columns": ["CHAIN", "DATA_VALUE"],
 "data": [
  ["VILYFMYRK", "≤ 4.70"]
]}

###

STUDY_SYSTEM: HLA-B*27:03
ASSAY_TEXT: IEDB peptide-MHC binding, purified MHC/competitive/fluorescence; filed as Kd, often an IC50 or EC50 that approximates it; bounds were set here for any values at or beyond the usual limits of such assays
EXPERIMENTAL_CONTEXT: source organism: Brucella suis ATCC 23445
RESULT_TYPE: Kd

{"columns": ["CHAIN", "RESULT_TYPE", "DATA_VALUE"],
 "data": [
  ["ITAVNRYFK", "Kd", "≥ 20 µM"]
]}
